Data provenance: PubChem BioAssay AID1159580

method: chemical genetic growth profiling, strain panel (AID 1159580);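 also: tested at 20 µM; growth read once vehicle control cultures reached saturation at 30 °C; 1 = growth at the plate median or of vehicle wells; lower values mean less growth of the strain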
cond: S. cerevisiae deletion strains, growth OD, locus YNL322C, strain KRE1, hits give low values
The campaign covered roughly 5,500 compounds. About 2,000 (36%) were called active. Not shown: some 18% with an inconclusive outcome. The list shows a part of the results.
Item-by-item account of normalized growth
quantity_kind: normalized growth

| smiles_structure | value_observed |
| --- | --- |
| CC1=NN(c2ccccc2)C(=O)C1 | 0.985 |
| CC1=NN(c2cccc(S(N)(=O)=O)c2)C(=O)C1 | 1.01 |
| CC(C)(C)C1=NN(c2ccccc2)C(=O)C1 | 0.981 |
| Cc1cccc(C(=O)c2ccccc2C(=O)O)c1 | 0.993 |
| COC(=O)[C@]1(C)CC[C@]2(C)CC[C@]3(C)C4=CC=C5C(=CC(=O)C(O)=C5C)[C@]4(C)CC[C@@]3(C)[C@@H]2C1 | 0.772 |
| Cc1ccc(=O)n(-c2ccccc2)c1 | 0.998 |

###

method: chemical genetic growth profiling, strain panel (AID 1159580);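 also: tested at 20 µM; growth read once vehicle control cultures reached saturation at 30 °C; 1 = growth at the plate median or of vehicle wells; lower values mean less growth of the strain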
cond: S. cerevisiae deletion strains, growth OD, locus YKL203C, strain TOR2
About 2,000 (36%) of roughly 5,500 compounds were called active. Inconclusive results (about 18%) are left out. Rule as the data show it: active = normalized growth mostly below about 0.91 (no sharp cut-off); inconclusive = no clear call, values can overlap the other calls; inactive = mostly above about 0.92. Some of the results follow.
Classes used: T for active, F for inactive

| molecule | category |
| --- | --- |
| CC(C)(C)c1ccc(C(=O)NNC(=S)Nc2ccc(Cl)cc2)cc1 | F |
| O=C(Nc1cc2c(s1)-c1cc(Cl)ccc1SC2)Oc1ccccc1 | F |
| N#C/C(=N/Nc1cccc(C(F)(F)F)c1)C(=O)c1csc(-c2cccnc2)n1 | F |
| COc1ccc(C2CC(c3ccc(C)cc3C)=NN2C(C)=O)cc1 (stereo unspecified) | F |
| O=C(NNC(=S)Nc1ccc(Cl)cc1)c1ncc(C(F)(F)F)cc1Cl | F |
| CCOC(=O)c1cnc2c(c(C)nn2C)c1Sc1nnc(SC)s1 | T |

###

method: chemical genetic growth profiling, strain panel (AID 1159580);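 also: tested at 20 µM; growth read once vehicle control cultures reached saturation at 30 °C; 1 = growth at the plate median or of vehicle wells; lower values mean less growth of the strain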
cond: S. cerevisiae deletion strains, growth OD, locus YGR229C, strain SMI1
In all, about 5,500 compounds went through this assay and about 2,000 (36%) were called active. Not shown: some 18% with an inconclusive outcome. Rule as the data show it: active = normalized growth mostly below about 0.91 (no sharp cut-off); inconclusive = no clear call, values can overlap the other calls; inactive = mostly above about 0.92. Some of the results follow. Where a SMILES comes first, the peptide text is derived from it. [ ]: non-standard residue; d: D form. Orn = NCCC[CH](N)C(=O)O
Labels: y = active, n = inactive

| molecule | category |
| --- | --- |
| CC(=O)OCC(=O)[C@@]12OC3(CCCC3)O[C@@H]1CC1C3CCC4=CC(=O)C=C[C@]4(C)[C@@]3(F)[C@@H](O)C[C@@]12C (some centres undefined) | n |
| CC(C)CC1NC(=O)C(CCCN)NC(=O)C(C(C)C)NC(=O)C2CCCN2C(=O)C(Cc2ccccc2)NC(=O)C(CC(C)C)NC(=O)C(CCCN)NC(=O)C(C(C)C)NC(=O)C2CCCN2C(=O)C(Cc2ccccc2)NC1=O (centres undefined) (cyclo(FPV[Orn]LFPV[Orn]L); configuration not given here) | n |
| CC(C)S(=O)(=O)c1csc(C(N)=O)c1Cl | n |
| COC(=O)c1scc(S(=O)(=O)C(C)C)c1N/N=C(/C#N)C(=O)c1ccccc1 | n |
| CCOc1ccc(NC(C)=O)cc1 | n |
| COc1cc2nc(-c3cccs3)oc(=O)c2cc1OC | n |
| CC(=O)[O][Hg][c]1ccccc1 | y |
| COc1cccc(NC(N)=S)c1 | n |
| NC(N)=NC(N)=Nc1ccccc1 | n |
